System: M14 melanoma
Assay: NCI-60 one-dose screen, 48 h (100 = growth as untreated, 0 = no growth, -100 = all killed)
Details: 10 µM unless noted
Experimental: Growth inhibition of the M14 human tumor cell line is measured as a screen for anti-cancer activity. Cells are grown in 96 well plates and exposed to the test compound for 48 hours. Compounds are tested at a single concentration, which is 10^-5 M for most compounds. The reported endpoint is percent growth (GI% or GIPRCNT), where numbers from 0 - 100% represent growth inhibition, and numbers from -100% - 0 represent cell death. For example, a value of 40 represents 60% growth inhibition. […]
Compounds without any hit were thinned out: in the full panel of roughly 83,000, 20% have a hit. Activity calls are given as the source filed them. The calls were made as follows: active = growth percent below 10; inactive = the rest.
Below is a list of entries, each paired with its recorded growth value.

Answered cases to consult:
Cc1cc(CC(=O)NCCO)n(CCO)c(=O)c1
103% (inactive)
Cc1ccc(C2CCCCC2)cc1Br
98.6% (inactive)
CC(=O)OCC1CCC(COC(C)=O)CC1 (centres undefined)
111% (inactive)
Cc1ccc(C)c2c1CCC2=O
95.7% (inactive)
Cc1ccc(Cc2ccc(C)cc2)cc1
99.6% (inactive)

Please give the documented growth of CC(CO)(CO)C(=O)O
103% (inactive)

Please give the documented growth of CC(C)N1CC(=O)N2CSCC2C1=O (centres undefined)
104% (inactive)

Please give the documented growth of Cc1cc(Nc2ccc3c(c2)OCO3)c2cc3c(cc2n1)OCO3
-16.7% (active)

---

Below is a list of entries, each paired with its recorded growth value.
System: NCI/ADR-RES ovarian
Experiment: NCI-60 one-dose screen, 48 h (100 = growth as untreated, 0 = no growth, -100 = all killed)
Details: 10 µM unless noted
The panel holds about 83,000 compounds, 20% with a hit somewhere; the sample as a whole holds those more often.
Output spec: scalar in %, unitless text.

Answered cases to consult:
CC(C)N(CCCC#N)C(C)C
121
Cn1/c(=N\N=C\c2ccccc2OCCO)sc2ccccc21
109
C=C1CC2(OC1=O)C(=O)N(C)c1ccc(I)cc12 (centres undefined)
-66

Enter measured growth, system NCI/ADR-RES ovarian, for the compound shown: c1ccc2[nH]c(Cc3nc4ccccc4[nH]3)nc2c1
110

Enter measured growth, system NCI/ADR-RES ovarian, for the compound shown: CC(C)(C)CC1(C)NC(=O)NC1=O (centres undefined)
99.7

Enter measured growth, system NCI/ADR-RES ovarian, for the compound shown: CNc1ccccc1C(=O)N/N=C/C=C/c1ccccc1
3.92

Enter measured growth, system NCI/ADR-RES ovarian, for the compound shown: CC1(C)OC2C(CO)OC(n3ccc(=O)[nH]c3=O)C2O1 (centres undefined)
105

Enter measured growth, system NCI/ADR-RES ovarian, for the compound shown: NC(=S)N/N=C/c1ccc(Cl)cc1
100

Enter measured growth, system NCI/ADR-RES ovarian, for the compound shown: CC(=O)N(C(C)=O)c1ccc(C)cc1
96.6

Enter measured growth, system NCI/ADR-RES ovarian, for the compound shown: O=c1cc(C(F)(F)F)[nH]c(=S)[nH]1
109

Enter measured growth, system NCI/ADR-RES ovarian, for the compound shown: COC(CCCl)c1ccc(Cl)cc1 (centres undefined)
98.6

Enter measured growth, system NCI/ADR-RES ovarian, for the compound shown: C1C[S+]2CC[S+]1CC2
99.3

Enter measured growth, system NCI/ADR-RES ovarian, for the compound shown: CC(=O)c1cc(O)ccc1O
92.8

Enter measured growth, system NCI/ADR-RES ovarian, for the compound shown: CC1CCC(C)(C)c2ccccc21 (centres undefined)
101

---

Tested on: NCI/ADR-RES ovarian
Test: NCI-60 one-dose screen, 48 h
Details: 10 µM unless noted
About 83,000 compounds went through this panel and 20% of them were active in at least one assay; those are over-represented in the sample as a whole. The source made the active and inactive calls. Rule for the calls: active = growth percent below 10; inactive = the rest.
Answer with one of the outcomes T for active, F for inactive

Here's what some known entries look like.
CCCCOC(=O)c1ccccc1O
F
CCCCc1ccc2nc(NC(=O)OC)[nH]c2c1
T
COc1nc2ccccc2s1
F
COc1ccc(C)cc1NC(=O)SC(C)C
F
CN=S(=O)(OCCCCCOS(=O)(=NC)c1ccc(C)cc1)c1ccc(C)cc1 (stereo not drawn)
F
O=C(CCl)Oc1ccc([N+](=O)[O-])cc1
F

Status in this test for CCCCN(C=S)CCCC ?
F

Status in this test for Cc1ccccc1NC(=O)Oc1ccc(Cl)cc1C(=O)c1ccccc1 ?
F

Status in this test for Nc1ncnc(Nc2ccccc2)n1 ?
F

Status in this test for C/C(O)=C(/C=N\C(=S)Nc1ccc(S(=O)(=O)Nc2nccs2)cc1)C(=O)Nc1ccccc1C ?
F

Status in this test for N#C/C(=C\c1ccc(C#N)cc1)C(=O)c1ccccc1 ?
F

Status in this test for COc1ccc2c(ccc[n+]2C)c1 ?
F

Status in this test for CN(CCCN(C)CCC1CCCCC1)CCC1CCCCC1 ?
F

---

Test system: OVCAR-3 ovarian
Assay: NCI-60 one-dose screen, 48 h (100 = growth as untreated, 0 = no growth, -100 = all killed)
Details: 10 µM unless noted
About 83,000 compounds went through this panel and 20% of them were active in at least one assay; those are over-represented in the sample as a whole.
Below is a list of entries, each paired with its recorded growth value.
Output spec: scalar in %, unitless text.

Cc1ccccc1CC(N)C(=O)O (stereo not drawn)
104
NC(=S)N/N=C/c1ccc(Cl)cc1
116
CC1(C)C2CCC1(C)C1(C2)OCCS1 (stereo not drawn)
109
COc1ccc(Br)c2c1C(=O)CC2
103
Cc1ccc(NC(=S)N2CCOCC2)cc1C
104
O=C(NC1CCCCC1)c1ccc(Cl)cc1
102

Please give the documented growth of COC1OC(COC(C)=O)C(OC(C)=O)C(OC(C)=O)C1OC(C)=O (stereo not drawn)
96

Please give the documented growth of CC(=O)c1cccs1
103

Please give the documented growth of CC(C)=CCC[C@@H](C)[C@H]1CC[C@@]2(C)C3=C(CC[C@]12C)[C@@]1(C)CC[C@H](O)C(C)(C)[C@@H]1CC3
122

Please give the documented growth of Cc1ccc2[nH]c3ccccc3c2c1
104

Please give the documented growth of NCC(O)C(O)C(O)C(O)CO (stereo not drawn)
101

Please give the documented growth of CC(=O)NCNC(C)=O
120

Please give the documented growth of Nc1cc(N)ncn1
112

Please give the documented growth of Nc1nnc2cc(F)ccc2n1
96.2

---

System: SK-OV-3 ovarian
Assay: NCI-60 one-dose screen, 48 h
Conditions: 10 µM unless noted
This is part of a sample that, as a whole, favours compounds with a hit. Of some 83,000 tested, about 20% had one in any assay. The source made the active and inactive calls. Rule for the calls: active = growth percent below 10; inactive = the rest.
Answer with one of the outcomes YES = active, NO = inactive

Here's what some known entries look like.
N#C/C(=C\c1ccc2c(c1)OCO2)c1ccccc1
NO
N#Cc1ccc(OC(=O)Nc2cc(Cl)cc(Cl)c2)cc1
YES
Cc1cc(NC(=O)c2ccccc2)c(Cl)cc1N
NO
O=c1[nH]c(=O)c2cc(Cl)cc(Cl)c2[nH]1
NO
Nc1cc(F)ccc1[N+](=O)[O-]
NO
O=C(NCc1ccccc1)/C(=C/c1ccccc1)NC(=O)c1ccccc1
NO

Status in this test for CC(=O)N=c1ccc2nc3c(cc(N)c4ccccc43)oc-2c1 ?
NO

Status in this test for CCNc1ncnc2[nH]ncc12 ?
NO

---

System: M14 melanoma
Test: NCI-60 one-dose screen, 48 h
Conditions: 10 µM unless noted
Experimental: Growth inhibition of the M14 human tumor cell line is measured as a screen for anti-cancer activity. Cells are grown in 96 well plates and exposed to the test compound for 48 hours. Compounds are tested at a single concentration, which is 10^-5 M for most compounds. The reported endpoint is percent growth (GI% or GIPRCNT), where numbers from 0 - 100% represent growth inhibition, and numbers from -100% - 0 represent cell death. For example, a value of 40 represents 60% growth inhibition. […]
The panel holds about 83,000 compounds, 20% with a hit somewhere; the sample as a whole holds those more often. Calls of active or inactive are those of the source. The calls were made as follows: active = growth percent below 10; inactive = the rest.
Answer with one of the outcomes 1 = active, -1 = inactive

CSc1cnc2ccccc2n1
-1

Status in this test for CCN(Cc1ccc(Cl)c(Cl)c1)c1ccc2nc(N)nc(N)c2c1C ?
1

Status in this test for CC1CCC(C(C)(C)[N+](C)(C)C)CC1 (stereo not given) ?
-1

Status in this test for O=C(CCl)Oc1ccc([N+](=O)[O-])cc1 ?
-1

Status in this test for Nc1ccc(F)c(Cl)c1F ?
-1

Status in this test for CCCC(=O)c1cccs1 ?
-1

Status in this test for Cc1ccc(S(=O)(=O)Oc2ccc3sc4c(CO)ccc(NCCN(C)C)c4c(=O)c3c2)cc1 ?
1

Status in this test for ON1CCCC1 ?
-1

Status in this test for O=C(NC1CCCCC1)c1ccc(Cl)cc1 ?
-1
